Measured pIC50 values are reported for all entries that follow.
- Test system: Raji cells, CD33-non-expressing
- experiment summary: In vitro cell assay, cell viability by MTS, Raji
- Format: cell-based
- experimental context: Homo sapiens, 96 h, read-out: Average IC50, Raji
Note: pIC50 values are expressed as the negative base-10 logarithm of concentration in M.

Observe how each entry below is paired with its result.
molecule	pIC50
CCN[C@H]1CO[C@@H](O[C@H]2[C@H](O[C@H]3C#C/C=C\C#C[C@]4(O)CC(=O)C(NC(=O)OC)=C3/C4=C\CSSC(C)(C)CCNC(=O)[C@H](CCCNC(N)=O)NC(=O)[C@@H](NC(C)=O)C(C)C)O[C@H](C)[C@@H](NO[C@H]3C[C@H](O)[C@H](SC(=O)c4c(C)c(I)c(O[C@@H]5O[C@@H](C)[C@H](O)[C@@H](OC)[C@H]5O)c(OC)c4OC)[C@@H](C)O3)[C@@H]2O)C[C@@H]1OC [Example P35]	8.68
CCN[C@H]1CO[C@@H](O[C@H]2[C@H](O[C@H]3C#C/C=C\C#C[C@]4(O)CC(=O)C(NC(=O)OC)=C3/C4=C\CSSC(C)(C)CNCCOc3ccccc3)O[C@H](C)[C@@H](NO[C@H]3C[C@H](O)[C@H](SC(=O)c4c(C)c(I)c(O[C@@H]5O[C@@H](C)[C@H](O)[C@@H](OC)[C@H]5O)c(OC)c4OC)[C@@H](C)O3)[C@@H]2O)C[C@@H]1OC [Example P36]	8.95

Please find the next molecule below.
IN: State pIC50 on Raji cells, CD33-non-expressing. Entry: CCN[C@H]1CO[C@@H](O[C@H]2[C@H](O[C@H]3C#C/C=C\C#C[C@]4(O)CC(=O)C(NC(=O)OC)=C3/C4=C\CSSC(C)(C)CC(=O)O)O[C@H](C)[C@@H](NO[C@H]3C[C@H](O)[C@H](SC(=O)c4c(C)c(I)c(O[C@@H]5O[C@@H](C)[C@H](O)[C@@H](OC)[C@H]5O)c(OC)c4OC)[C@@H](C)O3)[C@@H]2O)C[C@@H]1OC [Example P32]
OUT: 11.40
